// data source = the supplement of paper PMC11208160

# testDescription: recombinant UMI read abundance after kanamycin selection (control-corrected) (log10(CPM+1)); higher = more efficient recombination; extreme values may be limits of the assay; sequences stand for … in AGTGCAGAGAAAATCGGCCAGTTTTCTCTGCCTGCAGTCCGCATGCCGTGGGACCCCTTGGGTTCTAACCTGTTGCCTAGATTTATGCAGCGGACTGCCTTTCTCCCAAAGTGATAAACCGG…AGGTTGGTTTCACT; site = the 11-nt donor;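 note: IS621 bridge recombinase in Escherichia coli cells against a fixed T5 target plasmid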
endpointName: recombinant UMI read abundance (log10)

[[record]]
residues = "GTAGGTACATGGACCGGTTTTCCCGGTAATCCGTATTTGTC (site GTAGGTACTGA)"
endpointname = "recombinant UMI read abundance (log10)"
observedvalue = 1.99

[[record]]
residues = "ATCTATACATGGACCGGTTTTCCCGGTAATCCGTATTTGGC (site ATCTATACTGA)"
endpointname = "recombinant UMI read abundance (log10)"
observedvalue = 1.09

[[record]]
residues = "CAAGCGCCATGGACCGGTTTTCCCGGTAATCCGTATTTGCG (site CAAGCGCCTCC)"
endpointname = "recombinant UMI read abundance (log10)"
observedvalue = 0.0171

[[record]]
residues = "GAGGCCTCATGGACCGGTTTTCCCGGTAATCCGTATTTGAG (site GAGGCCTCTCT)"
endpointname = "recombinant UMI read abundance (log10)"
observedvalue = 1.42

[[record]]
residues = "AGCCGTACATGGACCGGTTTTCCCGGTAATCCGTATTTGCT (site CGCCGTACTAG)"
endpointname = "recombinant UMI read abundance (log10)"
observedvalue = 0.697


Give me recombinant UMI read abundance (log10) for each of these sequences, listed below.
1. TGGGAATCATGGACCGGTTTTCCCGGTAATCCGTATTTGCG (site TGGGAATCTCG)
2. ACACATTCATGGACCGGTTTTCCCGGTAATCCGTATTTGAC (site ACACATCCTGT)
3. GGCGCAGCATGGACCGGTTTTCCCGGTAATCCGTATTTGTT (site GGCGCAGCTAA)
4. GATAAAGCATGGACCGGTTTTCCCGGTAATCCGTATTTGGG (site GATAAAGCTCC)
5. ACGAAACCATGGACCGGTTTTCCCGGTAATCCGTATTTGGA (site ACGAAACCTTC)
6. TCGTTGTCATGGACCGGTTTTCCCGGTAATCCGTATTTGAA (site TCGTTGTCTTT)

Response line:
1: 2.5; 2: 0.331; 3: 0.794; 4: 0.172; 5: 0; 6: 0.876
